# targetOrSystem: NHERF4_4, Q86UT5
# Sequence (Q86UT5 464-550): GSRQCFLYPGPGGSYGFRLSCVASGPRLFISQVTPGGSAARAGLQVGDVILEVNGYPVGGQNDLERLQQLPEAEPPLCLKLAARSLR
# assayOverview: holdup assay
# Set-up: key: below the threshold = too weak to quantify, mostly under pKd 3.1 to 4
# conditionLabel: plain residues with an end cap or a label only (N-terminal biotin on a linker: ado-ado)
readout: pKd

Use these answered entries as a reference point.
binder: GQNMTVSVVI [PRLHR, P49683]
pKd: 3.97
--
binder: MQILSKPEFI [NPSR1, Q6W5P4]
pKd: below the threshold
--
binder: MLPANYVEAI [NEB, P20929]
pKd: below the threshold
--
binder: DAAHHDESNC [FMNL3, Q8IVF7]
pKd: below the threshold
--
binder: DFKHTKSFII [JAM2, P57087]
pKd: below the threshold
--
binder: SSSVNVSSNL [CXCR1, P25024]
pKd: below the threshold
--
binder: PSVYSRSQYV [CLDN8, P56748]
pKd: below the threshold
--
binder: NISARRFTLC [FAM167B, Q9BTA0]
pKd: below the threshold
--
binder: THHRKIHTRV [ZNF599, Q96NL3]
pKd: below the threshold
--
binder: SRPHTNETSL [MCC, P23508]
pKd: below the threshold

Kindly consider the entry below.
Please fill in: pKd reported for TKDKVQETQI [LRRC4, Q9HBW1] = 3.95
